B1: Segment polarity protein dishevelled homolog DVL-3, residues 2 to 81; numbered along this chain, Q92997 (parent)
chain: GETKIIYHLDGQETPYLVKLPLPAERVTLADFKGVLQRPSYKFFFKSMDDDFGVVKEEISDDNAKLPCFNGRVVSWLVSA

Variants of: B1
procedureSummary: abundance fitness (aPCA) (normalised: wild type 0, dead -1); higher = more abundant; growth selection in yeast, the domain comes from the species named
reportedConditions: Homo sapiens
Short version: abundance fitness at least -0.1 is TRUE, less is FALSE.

These recorded examples may help you get a feel for the data.
Would you say L22F shows abundance fitness at minimum -0.1?
FALSE

Form field: abundance fitness at least -0.1? Entry: F44K
FALSE

Is it the case that E58N has abundance fitness reaching or exceeding -0.1?
FALSE

Has T28V a recorded abundance fitness greater than or equal to -0.1?
FALSE

Please check the record A64Y and state if its abundance fitness is at or above -0.1.
FALSE

---
Identify whether the reported abundance fitness of the following variant is -0.1 or greater: K56P
FALSE

Please check the record K19C and state if its abundance fitness is at or above -0.1.
TRUE

Hi team, for D62N , is the recorded abundance fitness at or above -0.1?
FALSE

Given F69G , state whether its abundance fitness is at least -0.1.
FALSE

abundance fitness >= -0.1 for A24L ?
FALSE

Tell me whether abundance fitness is at least -0.1 here: N70L
FALSE

Decide: abundance fitness of M48C >= -0.1?
TRUE

Reported abundance fitness reaches at least -0.1 for D50S ?
TRUE

Would you say V78E shows abundance fitness at minimum -0.1?
TRUE

Threshold query (abundance fitness >= -0.1) on L22P
FALSE

Hi, just wondering whether S40N shows abundance fitness of -0.1 or higher.
TRUE

Reported abundance fitness at or above -0.1? G34M
TRUE

Record Y41H ; criterion: abundance fitness no lower than -0.1. Met?
FALSE

Does the reported abundance fitness for F32P fall at or above the -0.1 mark?
FALSE

Does A80E have a reported abundance fitness of at least -0.1?
TRUE

Has G34P a recorded abundance fitness greater than or equal to -0.1?
FALSE
